B1: FAM46D (parent)
chain: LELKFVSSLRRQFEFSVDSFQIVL

variants of: B1; assay: protein stability index of a GFP-peptide fusion (GPS, HEK-293T) (PSI 1-6); higher = more stable; settings: c terminus: a fixed tail appended;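 further: lentivirally expressed fusions sorted by FACS into six bins by GFP to DsRed ratio, PSI derived from sequencing read proportions per bin multiplied by bin number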
Could you please report measured protein stability index for the items listed next?

Record summary for LELKFVSSLRRQFEFSEDSFQIVL [V17E] : reported protein stability index = 1.91

Lab note: LELKFVSSLRRQFEFSVDSQQIVL [F20Q] gave protein stability index of 1.61

The recorded protein stability index for LELKFVSSLRRQFEFSYDSFQIVL [V17Y] is 1.51

variant LELKFVSSLRAQFEFSVDSFQIVL [R11A] , protein stability index observed: 4.7

# variant LELKFVWSLRRQFEFSVDSFQIVL [S7W] ; its protein stability index = 2.37

For reference, reported protein stability index for LELKFVSSLRRQFEFSVDSFSIVL [Q21S] stands at 2.89

Memo: LELKFVSSLRRQFGFSVDSFQIVL [E14G] , reported protein stability index: 3.4

Looking up LELKFVSSHRRQFEFSVDSFQIVL [L9H] , I see its protein stability index listed as 2.9

Sample LELKFVSSLRRQFEFSTDSFQIVL [V17T] ; protein stability index observed: 2.76

Field protein stability index (entry LELKFESSLRRQFEFSVDSFQIVL [V6E] ) reads 2.75

The variant identified as LELKFVSSLRRQFEFSIDSFQIVL [V17I] registered its protein stability index at 2.8

Just so you know, measured protein stability index for LELKFVSSLRRQFECSVDSFQIVL [F15C] came out at 2.42

Data point: LELKFVSSLRRQFEFSFDSFQIVL [V17F] ; protein stability index = 2.88

Item: LSLKFVSSLRRQFEFSVDSFQIVL [E2S] | protein stability index: 3

The measured protein stability index associated with LELKFVTSLRRQFEFSVDSFQIVL [S7T] reads 1.5

protein stability index reading for LELKCVSSLRRQFEFSVDSFQIVL [F5C] : 3.27

The value of protein stability index measured for the variant LELKFVSSLRYQFEFSVDSFQIVL [R11Y] turned out to be 3.14

variant LELKFISSLRRQFEFSVDSFQIVL [V6I] , protein stability index observed: 2.95

What the record says about LELKFVSSLRRQFEFSVDSFQMVL [I22M] : protein stability index is 3.31

Form field protein stability index, entry LELKFVSSLRRQFEFSVDSFQIQL [V23Q] : 2.29

LELKFVSSLRRQFSFSVDSFQIVL [E14S] has a reported protein stability index of 2.66

protein stability index reading for LELKFVQSLRRQFEFSVDSFQIVL [S7Q] : 2.43

Lab note: measured protein stability index of LELKFVSTLRRQFEFSVDSFQIVL [S8T] was 3

So, LELKFVSSLRRQFEFSVDSFQAVL [I22A] ? Its protein stability index was 2.26

protein stability index in this record for LELKFVSSLRRQFEFFVDSFQIVL [S16F] : 2.79

Summary for this variant, LELKFVSSLRRQFEFSVDSFQINL [V23N] : protein stability index is 3.11

The variant listed as LELKFVSSLPRQFEFSVDSFQIVL [R10P] has a reported protein stability index of 3.23

get_value(item= LELKFVSSDRRQFEFSVDSFQIVL [L9D] , readout=protein stability index) returns 3.93

Summary for this variant, LELKFVSSLRRQFEFSVDSFVIVL [Q21V] : protein stability index is 2.67

For LELKFVSSLTRQFEFSVDSFQIVL [R10T] the variant record lists protein stability index as 2.83

Documented protein stability index of LELKFVSSLRRQFEFDVDSFQIVL [S16D] : 3.15

Lab book: protein stability index of MELKFVSSLRRQFEFSVDSFQIVL [L1M] noted as 4.32

# variant LELKFVSSLRRQFEFSVDSFQTVL [I22T] ; its protein stability index = 2.21

Note to self: protein stability index recorded for LELKFVSSLRRQFEFSVDSFFIVL [Q21F] was 2.74

Value of protein stability index reported for the variant LELKFVSSLRRQFEFSVDTFQIVL [S19T] is 2.43

protein stability index reading for LELKFVSSLRRQFEFSNDSFQIVL [V17N] : 3.45

For this variant ( LELKFNSSLRRQFEFSVDSFQIVL [V6N] ), measured protein stability index is 4.62
